Source listed as ChEMBL document CHEMBL3272293.

experimental_protocol: Dissociation constant, pKa of the compound by titrimetric analysis
Type: physicochemical
measurement_type: pKa

[[record]]
smiles_string = "CN1CC[C@]23CCCC[C@H]2[C@H]1Cc1ccc(O)cc13"
observed = 3


---

experimental_protocol: physchem
condition_summary: octanol/aqueous phase
Description: Octanol-aqueous phase partition coefficient, log P of the compound
Please use rule met whenever logP is not below 2, and rule not met whenever it is.

[[record]]
smiles_string = "Nc1cccc([N+](=O)[O-])c1"
group = "rule not met"

[[record]]
smiles_string = "CCC(=O)c1ccc(O)cc1"
group = "rule not met"

[[record]]
smiles_string = "O=C(O)c1cccc([N+](=O)[O-])c1"
group = "rule not met"

[[record]]
smiles_string = "CC(C)CCCCCc1cc([N+](=O)[O-])c(O)c([N+](=O)[O-])c1"
group = "rule met"

[[record]]
smiles_string = "CC(C)Cc1cc([N+](=O)[O-])c(O)c([N+](=O)[O-])c1"
group = "rule met"


---

experimental_protocol: Octanol-aqueous phase […] of the compound at pH 7.10
Format: physicochemical
condition_summary: pH 7.1
measurement_type: logD

[[record]]
smiles_string = "CN1CC[C@]23CCCC[C@H]2[C@H]1Cc1ccc(O)cc13"
observed = 3.02


---

experimental_protocol: physchem
condition_summary: pH 7.8
Description: Dissociation constant, pKa of the compound at pH 7.8
measurement_type: pKa

[[record]]
compound = "O=C(O)c1cc([N+](=O)[O-])cc([N+](=O)[O-])c1O [3,5-DINITROSALICYLIC ACID]"
measurement_type = "pKa"
observed = 6.25

[[record]]
compound = "O=C(O)c1cc(Cl)ccc1O [5-CHLOROSALICYLIC ACID]"
measurement_type = "pKa"
observed = 5.17

[[record]]
compound = "O=C(O)c1cc(Br)cc(Br)c1O"
measurement_type = "pKa"
observed = 5.54

[[record]]
compound = "O=C(O)c1ccc([N+](=O)[O-])cc1 [4-NITROBENZOIC ACID]"
measurement_type = "pKa"
observed = 4.39


---

Readings of logP for the listed compounds
experimental_protocol: physchem
condition_summary: octanol/water
Description: Octanol-water partition coefficient, log P of the compound
measurement_type: logP

[[record]]
smiles_string = "O=C(O)c1ccc(Br)cc1"
measurement_type = "logP"
observed = 2.86

[[record]]
smiles_string = "O=C(O)c1cccc(I)c1"
measurement_type = "logP"
observed = 3.13

[[record]]
smiles_string = "O=C(O)c1cccc(Br)c1"
measurement_type = "logP"
observed = 2.84


---

Readings of log%Abs for the listed compounds
Tested on: Colon
experimental_protocol: Drug absorption in anesthetized rat colon at pH 6.8
Type: ADME, tissue-based
condition_summary: in vivo
measurement_type: log%Abs

[[record]]
compound = "O=[N+]([O-])c1cccc(O)c1 [3-NITRO-PHENOL]"
observed = 1.64

[[record]]
compound = "CCCC(C)C1(CC)C(=O)NC(=S)NC1=O (stereo not drawn) [THIOPENTAL]"
observed = 1.7

[[record]]
compound = "CC(=O)Nc1ccccc1 [ACETANILIDE]"
observed = 1.56


---

experimental_protocol: physchem
condition_summary: octanol/aqueous phase
Description: Octanol-aqueous phase distribution coefficient, log D of the compound
Please use TRUE whenever logD is not below 0.8, and FALSE whenever it is.

[[record]]
compound = "O=C(O)c1ccc(O)cc1O [2,4-DIHYDROXYBENZOIC ACID]"
group = "FALSE"

[[record]]
compound = "CN1CC[C@]23CCCC[C@H]2[C@H]1Cc1ccc(O)cc13"
group = "FALSE"

[[record]]
compound = "Cn1c(=O)c2[nH]cnc2n(C)c1=O.O"
group = "FALSE"

[[record]]
compound = "O=C(O)c1cc(Br)ccc1O"
group = "FALSE"

[[record]]
compound = "CCCC(C)C1(CC)C(=O)NC(=S)NC1=O (centres undefined)"
group = "TRUE"

[[record]]
compound = "COc1ccc(O)c(C(=O)O)c1"
group = "FALSE"

[[record]]
compound = "O=[N+]([O-])c1cccc(O)c1"
group = "TRUE"

[[record]]
compound = "O=C(O)c1cc(I)ccc1O"
group = "FALSE"

[[record]]
compound = "O=C(O)c1c(O)cccc1O"
group = "FALSE"

[[record]]
compound = "c1ccc(CC2=NCCN2)cc1"
group = "FALSE"

[[record]]
compound = "CC(=O)Nc1ccccc1 [ACETANILIDE]"
group = "TRUE"

[[record]]
compound = "O=[N+]([O-])c1ccccc1O [NITROPHENOLATE]"
group = "TRUE"

[[record]]
compound = "O=C(O)c1cc([N+](=O)[O-])ccc1O"
group = "FALSE"

